Entries and their measured GI50 follow.
tested on: SW-620 colon; assay: NCI tumour cell line growth inhibition, 48 h

Respond only with GI50 recorded for NCCCC(=O)Nc1ccncc1
> 100 µM

Respond only with GI50 recorded for CC(=O)C1CC2(c3ccc(C)cc3)C(c3ccc(C)cc3)=C(c3ccc(C)cc3)C1(c1ccc(C)cc1)S2=O (stereo not given)
> 100 µM

Respond only with GI50 recorded for O=C1CCCCCCCC/C=C/CCC(c2ccco2)O1 (stereo not given)
58.3 µM

Respond only with GI50 recorded for Cc1cc(C)c(O)c(CNCCCCCCNCc2cc(C)cc(C)c2O)c1
1.81 µM

Respond only with GI50 recorded for O=C(Nc1ccc(-n2cc(-c3ccncc3)c(-c3ccc(O)c(Cl)c3)n2)cc1)c1cc(Cl)cc(Cl)c1
2.21 µM
